Values compiled from PubChem BioAssay AID328.

The entries below come with measured T/C values attached.
# Test system: BDF1 mice, P388 leukemia ip, median survival T/C
# protocol-description: NCI In Vivo Anticancer Drug Screen. Data for tumor model P388 Leukemia (intraperitoneal) in B6D2F1 (BDF1) mice
# experimental-conditions: endpoint: median survival time; dose: 12.5 mg/kg/injection; schedule: Q01DX009 (ip); vehicle: water; higher = longer survival
Toxic doses and inconclusive results are not listed.

Tell us which T/C value is on record for `FC(F)(F)C1=NC(=S)C(c2[nH]c(C(F)(F)F)nc2S)=N1`
108 % of control

###

# System: BDF1 mice, P388 leukemia ip, median survival T/C
# protocol-description: NCI In Vivo Anticancer Drug Screen. Data for tumor model P388 Leukemia (intraperitoneal) in B6D2F1 (BDF1) mice
# experimental-conditions: endpoint: median survival time; dose: 25.0 mg/kg/injection; schedule: Q04DX003 (ip); vehicle: saline with Tween-80
Inconclusive results and toxic doses are left out. Rule for the calls: active = survival T/C of 150% or more; inactive = T/C below 125% in these data.
Please state which outcome applies, choosing from active, inactive

| compound | assigned-category |
| --- | --- |
| CC(C)(C)Cc1cc(O)c2c(c1O)C(=O)c1ccccc1C2=O | inactive |

Query: recorded result category for `C[S+](C)N(c1ccccc1)C(C)(C)C` in this test
inactive

Could you check what this test reported for `Nc1nc(=O)[nH]c(N)c1N=O` ?
inactive

Record request — test call for `Cc1cc(N(CCOS(C)(=O)=O)CCOS(C)(=O)=O)ccc1C=O`
inactive

Recorded test call requested for O=C1c2ccccc2C(=O)N1C1CCC(O)CC1 (stereo unspecified)
inactive

// outcome(item) with item = CC1CCC(NC2=NCCO2)C(C)C1 (stereo unspecified)
inactive

How was `Cn1ccn(C2CCCCC2)c1=O` classified in this test?
inactive
